target.system: Short transient receptor potential channel 4 (Mus musculus)
test.method.notes: blockers of DAMGO-evoked TRPC4 calcium flux – cell-based, Fluo4, HEK293 TRPC4beta/mu-opioid, confirmation (AID 2636)
particulars: at 10 µM
Calls of active or inactive are those of the source.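 The calls were made as follows: active = calcium signal cut by more than 3 SD below the full-agonist control yet still positive, in both repeats and the earlier primary screen; inactive = the rest.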
Outcome codes: active, inactive

compound	class.name
CCCn1c(=N)n(CC(=O)C(C)(C)C)c2ccccc21	active
CCCN1CCC(NC(=O)Cc2cccc(C)c2)CC1	inactive
CCc1c(C(=O)N2CCCN(C)CC2)csc1C	active
Cc1ccc(OCCn2c(C)nc3ccccc32)cc1	active
CN1CCN(c2ccc(NC(=O)COc3cccc4ccccc34)cc2)CC1	inactive
COc1cc(CNCCc2ccc(F)cc2)ccc1OCc1ccc(Cl)nc1	active
CCc1ccc(OCC(=O)NC2CCCCC2)c(Br)c1	inactive
COC1=C(C)C(O)=C(C(=O)/C=C/c2ccccc2)C(=O)C1(C)C	inactive
CC(=O)OCC1O[C@@H](O[C@@H]2C[C@H]3C(C)(C)[C@H](OC(C)=O)CC[C@]3(C)[C@H]3CC[C@]45C[C@]4(CC[C@H]5[C@@H](C)C[C@@H](O)[C@H](O)C(C)(C)O)[C@@]32C)[C@H](O)[C@@H](O)[C@@H]1O (stereo not given in full)	inactive
CN(CC(=O)Nc1ccc(F)cc1)C(=O)COC(=O)C1CCN(c2ccc(C(F)(F)F)cn2)CC1	active

###

Test system: TRPC4 (mouse), co-expressed with 5HT1a in HEK293
test.method.notes: enhancement of serotonin-evoked TRPC4 response – cell-based, second counter screen, HEK293 TRPC4/5HT1a, Fluo-4, counter-screen for TRPC4 potentiator project, confirmation (AID 434979)
particulars: Fluo-4 calcium flux, at 10 µM, serotonin added at its EC20 dose
Active and inactive are the calls of the source.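 Rule for the calls: active = signal rise over 3 SD above mean of control wells given weak agonist, in both repeats and first screen; inactive = the rest.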
Outcome codes: Yes for active, No for inactive

compound	target.system	class.name
O=c1c2ccccc2nc(SCc2ccc([N+](=O)[O-])cc2)n1CCCO	TRPC4 (mouse), co-expressed with 5HT1a in HEK293	No
CN(Cc1ccccc1)C(=O)CSc1nnc(-c2ccco2)n1-c1ccccc1	TRPC4 (mouse), co-expressed with 5HT1a in HEK293	No
O=c1c2ccccc2[nH]c(=S)n1CCN1CCN(Cc2ccccc2)CC1	TRPC4 (mouse), co-expressed with 5HT1a in HEK293	No
COc1ccc(C(=O)OCCc2sc[n+](CC(=O)c3ccccc3)c2C)cc1	TRPC4 (mouse), co-expressed with 5HT1a in HEK293	No
Cc1nc2c3cc(Cl)ccc3n(CCN3CCCCC3)c2s1	TRPC4 (mouse), co-expressed with 5HT1a in HEK293	No
O=C(c1ccc([N+](=O)[O-])s1)N1CCCc2ccccc21	TRPC4 (mouse), co-expressed with 5HT1a in HEK293	No
CN(C)CCOC(=O)C1(c2ccccc2)CCOCC1	TRPC4 (mouse), co-expressed with 5HT1a in HEK293	Yes
CN(C)CCCN(C(=O)c1ccc(Cl)s1)c1nc2cc3c(cc2s1)OCO3	TRPC4 (mouse), co-expressed with 5HT1a in HEK293	No
CC(C)(C)CC(C)(C)NCC(O)COc1ccc2c(c1)CCC2 (stereo unspecified)	TRPC4 (mouse), co-expressed with 5HT1a in HEK293	No
COc1ccc(NS(=O)(=O)c2csc(C(N)=O)c2)cc1OC	TRPC4 (mouse), co-expressed with 5HT1a in HEK293	Yes
COc1c2c(cc3c1C(CC(O)Cc1ccccc1)N(C)CC3)OCO2 (stereo unspecified)	TRPC4 (mouse), co-expressed with 5HT1a in HEK293	No

###

Test system: TRPC4 (transient receptor potential cation channel C4 beta), mouse
test.method.notes: potentiation of DAMGO EC20 TRPC4 response – cell-based, second round, Fluo-4, HEK293 TRPC4beta/mu-opioid, 1 µM, confirmation (AID 2554)
particulars: DAMGO EC20, Fluo-4 calcium flux, at 1 µM
Active and inactive are the calls of the source.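 The calls were made as follows: active = primary screen hit whose fluorescence ratio, in both repeats, exceeds the weak agonist control mean by 3 SD; inactive = the rest.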
Outcome codes: y = active, n = inactive

compound	class.name
CN(C)C(CNc1ccc(C(F)(F)F)cn1)c1ccccc1 (stereo unspecified)	n
O=C(Nc1ccc(F)cc1)N1CCN2C(=O)c3ccccc3C12c1ccccc1 (stereo unspecified)	n
c1ccc(-c2nc(NCc3cccnc3)c3ccccc3n2)cc1	n
Cc1cc(C)c2nc(C)cc(N/N=C/c3ccc(O)cc3)c2c1	n
O=C(c1ccc(Cl)c(Cl)c1)N(Cc1ccco1)c1ccc(O)cc1	n
Cc1cc(C)c(S(=O)(=O)N2CCN(C)CC2)c(C)c1	y
CCN(CC)CCN(C(=O)c1ccccc1OC)c1nc2ccc(F)cc2s1	n
C=CCN(CC(O)c1cccc([N+](=O)[O-])c1)C(C)CCc1ccccc1 (stereo unspecified)	n
COc1ccc(/C=C(\C#N)C(=O)N2CCOCC2)cc1Br	n
CCSc1ccccc1C(=O)NCCc1ccccc1	n
COC(=O)c1ccccc1N=Nc1c(C)[nH][nH]c1=O	n
O=c1c2ccccc2nc(SCc2nc3ccccc3s2)n1CCCO	n
COc1ccc2nc(NCc3ccccc3)[nH]c2c1	n
CCC(=O)c1cc2c(C)cc(=O)oc2c(C)c1OC(=O)C(C)C	n
NC(=O)c1ccc(Oc2ccc3c(c2)CCC3)c([N+](=O)[O-])c1	n
N#Cc1c(-c2cccs2)nc(SCc2ccc(Cl)cc2)[nH]c1=O	n
CC(=O)Nc1nc(-c2ccc3c(c2)CCN3C(=O)C2CC2)c(C)s1	n
CCOc1ccc(CN2CCN(C(=O)c3ccccc3)CC2)cc1	n
Cc1nn(C)c(C)c1Sc1ccc(Br)cc1	n
COc1ccc(C(=O)NNC(=S)NC(=O)c2cccs2)cc1	n
O=[N+]([O-])c1cc(Cc2ccccc2)cc(C=Nc2ccc(N3CCOCC3)cc2)c1O	n
Cc1cccc(N(Cc2ccccc2)C(=O)CSC(C)C(=O)Nc2cc(C)on2)c1 (stereo unspecified)	n
CCN(CC)CCn1c2ccccc2c2cnc(N)c(C#N)c21	n
O=C(Nc1ncc(Br)s1)C(Cc1ccccc1)n1cccc1 (stereo unspecified)	n
O=C(COc1ccccc1)NC1CCCCCCC1	y
Cc1cccc(C(=O)NC(=S)NNC(=O)Cc2ccccc2)c1	n
COCCCNc1cc(C)nc2ccccc12	n
Cc1ccc(C)c(N2CCN(CCCNC(=O)CCn3c(=O)c4cccn4c4cccnc43)CC2)c1	n
Cc1cc(Nc2ccccc2)nc2cc(O)ccc12	n
O=C(c1cccc([N+](=O)[O-])c1)N1CCCC(C(=O)N2CCCCCC2)C1 (stereo unspecified)	n
CCCCn1c(NC(=O)c2ccccc2)nc2ccccc21	n
CCOc1cc2[nH]c(=S)n(C3CC3)c(=O)c2cc1OCC	n
CN(C)c1ccc(/C=C/C(=O)c2c(O)c3ccccc3oc2=O)cc1	n
O=S(=O)(c1ccccc1)N1CCN(C/C=C/c2ccccc2)CC1	n
COc1ccc(CCNC(=O)C2CCN(C(=O)c3ccc(C(C)(C)C)cc3)CC2)cc1	n
CC(C)Oc1cccc(C(=O)C2CCCN(Cc3cnn(C(C)C)c3)C2)c1 (stereo unspecified)	n
CCCCc1nc(SCCOC)c2c(=O)n(C)c(=O)n(C)c2n1	n
C/C(N)=C(/C#N)C(=O)COC(=O)CC12CC3CC(CC(C3)C1)C2	n
CC1=CC(=O)C(C(C)C)=C/C1=N/OS(=O)(=O)c1ccccc1	n
CCCCN(CC)CCNC(=O)c1ccc2c(Cl)c3c(nc2c1)CCC3	n
COC(=O)c1ccccc1NC(=O)c1cnn2cccnc12	n
CC(OC(=O)Cn1cnc2c1c(=O)n(C)c(=O)n2C)C(=O)Nc1ccc(Cl)cc1 (stereo unspecified)	n
CCOC(=O)C(CCCCCOc1ccc([N+](=O)[O-])cc1)C(=O)OCC	n
CCN1CCN(c2ccc(NC(=O)CCc3c(C)nc4c(-c5ccc(F)cc5)c(C)nn4c3C)cc2)CC1	n
O=C(CC1C(=O)NCCN1Cc1cccc(Oc2ccccc2)c1)NCCc1ccccn1 (stereo unspecified)	n
CN(C)CCCNc1ncnc2c1cnn2-c1ccccc1	y

###

test.method.notes: nonspecific calcium rise without TRPC4 – cell-based, HEK293 mu-opioid receptor line, counter-screen for TRPC4 activator project, confirmation (AID 449723);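 also: counter screen cells carry the mu-opioid receptor alone and lack TRPC4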
particulars: HEK293 mu-opioid cells, Fluo-4 calcium fluorescence, at 10 µM
The source made the active and inactive calls.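 Rule for the calls: active = hit in primary screen, with calcium signal over 5 SD above buffer well mean in both duplicates; inactive = the rest.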
Outcome codes: 1 for active, -1 for inactive

molecule	class.name
COc1ccc(C2CC(=O)c3cnc(N4CCN(Cc5ccccc5)CC4)nc3C2)cc1 (centres undefined)	-1
Cc1cc(Br)ccc1OCCN1CCCC1	-1
CCCCCC[N+](C)(C)CC/C=C1/c2ccccc2Sc2ccc(Cl)cc21	-1
CC(CCc1ccc(O)cc1)N(C)CCc1ccccc1 (centres undefined)	-1
O=C(CC(=O)c1c(F)cccc1Cl)c1ccccc1O	1
CC1CCC2C(C1)c1sc(=O)[nH]c1SC2(C)C (centres undefined)	-1
CC1(C)CN=c2s/c(=C\c3ccc(Cl)cc3)c(=O)n2C1	-1
c1ccn2cc(C34CC5CC(CC(C5)C3)C4)nc2c1	-1
Cc1cccc(C(=O)NC(=S)NNC(=O)Cc2ccccc2)c1	1
CCCCc1nnc(NC(=O)C2CCN(c3ncnc4sc(C)c(C)c34)CC2)s1	-1
Clc1cccc(OCCN2CCNCC2)c1	-1
CCOc1ccc2nc(N3CCCC(C(=O)NCC4CCCO4)C3)sc2c1 (centres undefined)	-1
CC1=C(C(=O)NCCN2CCN(C)CC2)C2(CCC(C)CC2)OC1=O (centres undefined)	-1
CCOC(=O)c1c(C(F)(F)C(F)(F)C(F)(F)C(F)(F)F)n[nH]c1C	-1
O=C(Nc1ccc(Cl)cc1)N1CCC(c2nc(-c3cccs3)no2)CC1	-1
CCN(CC)c1ncnc2sc3c(c12)CCC3	-1
CCN(CC)C(=O)C1CCCN(Cc2cccc(Oc3ccccc3)c2)C1 (centres undefined)	-1
CC1CN(C)C(C)c2c1oc1ccc(N)cc21 (centres undefined)	-1
CCOc1nc(C)cc(C)c1S(=O)(=O)c1cccc(C)c1	-1
c1ccc(C(c2nnnn2C2CCCC2)N2CCN(c3ccccc3)CC2)cc1 (centres undefined)	-1
COc1ccc(C(CNc2nc(-c3cccnc3)nc3ccccc23)N(C)C)cc1 (centres undefined)	-1
Oc1ccc(-c2csc(-c3ccccc3)n2)cc1O	-1
COc1ccc(-c2cc(C3CCN(c4cc(Cl)nc(N)n4)CC3)[nH]n2)cc1	-1
Cc1c(CCOC(=O)CC23CC4CC(CC(C4)C2)C3)sc[n+]1Cc1ccccc1	-1
